Each item that follows carries a reported MIC.
# Test system: Enterococcus faecalis CL5244, VanB
# test-name: MIC susceptibility test
# Format: cell-based
# experimental-conditions: Enterococcus faecalis CL5244, VanB; read-out: MIC CL5244
Value expressed in µg/mL; do not type the unit.

Examples with their reported MIC follow.
• CN[C@@H](CC(C)C)C(=O)N[C@H]1C(=O)N[C@@H](CC(N)=O)C(=O)N[C@H]2C(=O)NC3C(=O)N[C@H](C(=O)N[C@@H](C(=O)O)c4cc(O)cc(O)c4-c4cc3ccc4O)[C@H](O)c3ccc(c(Cl)c3)Oc3cc2cc(c3OC2OC(CSc3nnnn3-c3ccc(O)cc3)C(O)C(O)C2OC2CC(C)(N)C(O)C(C)O2)Oc2ccc(cc2Cl)[C@H]1O (stereo partly drawn) = 13
• CCCCCCCCCCNC1(C)CC(OC2C(Oc3c4cc5cc3Oc3ccc(cc3Cl)[C@@H](O)[C@@H](NC(=O)[C@H](CC(C)C)NC)C(=O)N[C@@H](CC(N)=O)C(=O)N[C@H]5C(=O)NC3C(=O)N[C@H](C(=O)N[C@@H](C(=O)O)c5cc(O)cc(O)c5-c5cc3ccc5O)[C@H](O)c3ccc(c(Cl)c3)O4)OC(CSc3nc4cc(Cl)ccc4s3)C(O)C2O)OC(C)C1O (stereo partly drawn) = 2.4
• CN[C@H](CC(C)C)C(=O)N[C@H]1C(=O)N[C@@H](CC(N)=O)C(=O)N[C@H]2C(=O)N[C@H]3C(=O)N[C@H](C(=O)N[C@H](C(=O)O)c4cc(O)cc(O)c4-c4cc3ccc4O)[C@H](O)c3ccc(c(Cl)c3)Oc3cc2cc(c3OC2OC(CSc3nc(N)n[nH]3)C(O)C(O)C2OC2CC(C)(NCc3ccc(-c4ccc(Cl)cc4)cc3)C(O)C(C)O2)Oc2ccc(cc2Cl)[C@H]1O (stereo partly drawn) = 0.2

Q: Requested read-out: MIC. Entry: CN[C@@H](CC(C)C)C(=O)N[C@H]1C(=O)N[C@@H](CC(N)=O)C(=O)N[C@H]2C(=O)NC3C(=O)N[C@H](C(=O)N[C@@H](C(=O)O)c4cc(O)cc(O)c4-c4cc3ccc4O)[C@H](O)c3ccc(c(Cl)c3)Oc3cc2cc(c3OC2OC(CSc3nnc(C)c(O)n3)C(O)C(O)C2OC2CC(C)(N)C(O)C(C)O2)Oc2ccc(cc2Cl)[C@H]1O (stereo partly drawn)
A: 1.2

Q: Requested read-out: MIC. Entry: CN[C@@H](CC(C)C)C(=O)N[C@H]1C(=O)N[C@@H](CC(N)=O)C(=O)N[C@H]2C(=O)NC3C(=O)N[C@H](C(=O)N[C@@H](C(=O)O)c4cc(O)cc(O)c4-c4cc3ccc4O)[C@H](O)c3ccc(c(Cl)c3)Oc3cc2cc(c3OC2OC(CN=[N+]=[N-])C(O)C(O)C2OC2CC(C)(N)C(O)C(C)O2)Oc2ccc(cc2Cl)[C@H]1O (stereo partly drawn) [XLVI, Glucose-C6-azide Vancomycin]
A: 25

Q: Requested read-out: MIC. Entry: CN[C@@H](CC(C)C)C(=O)N[C@H]1C(=O)N[C@@H](CC(N)=O)C(=O)N[C@H]2C(=O)NC3C(=O)N[C@H](C(=O)N[C@@H](C(=O)O)c4cc(O)cc(O)c4-c4cc3ccc4O)[C@H](O)c3ccc(c(Cl)c3)Oc3cc2cc(c3OC2OC(CSc3nnc(NN)n3N)C(O)C(O)C2OC2CC(C)(NCc3ccc(-c4ccc(Cl)cc4)cc3)C(O)C(C)O2)Oc2ccc(cc2Cl)[C@H]1O (stereo partly drawn)
A: 0.2
